# Measured Target: T315I ABL mutant kinase domain (Homo sapiens, UniProt P00519, T315I)
# Protocol Conditions: Table 1; displacement of probe 3.1 at 0.42 μM, 10 nM enzyme, average of three experiments
Readout Kind: pKd
pKd here is simply -log10 of the concentration when that concentration is written in mol/L.

Output measured pKd for this item: Nc1ncnc2c1ncn2[C@@H]1O[C@H](COP(=O)(O)OP(=O)(O)OP(O)(O)=S)[C@@H](O)[C@H]1O [ATPγS]
5.70

---

# Measured Target: Wild-type ABL 0P (unphosphorylated ABL kinase domain) (Homo sapiens)
# Protocol Conditions: Table 1; displacement of probe 3.1 at 0.15 μM, 10 nM enzyme, average of three experiments
Readout Kind: pKd
pKd here is simply -log10 of the concentration when that concentration is written in mol/L.

Output measured pKd for this item: Nc1ncnc2c1ncn2[C@@H]1O[C@H](COP(=O)(O)OP(=O)(O)OP(O)(O)=S)[C@@H](O)[C@H]1O [ATPγS]
5.02

---

# Measured Target: Wild-type ABL kinase domain (Homo sapiens, UniProt P00519)
# Protocol Conditions: Table 1; displacement of probe 3.1 at 0.12 μM, 10 nM enzyme, average of three experiments
Readout Kind: pKd
pKd here is simply -log10 of the concentration when that concentration is written in mol/L.

Output measured pKd for this item: Nc1ncnc2c1ncn2[C@@H]1O[C@H](COP(=O)(O)OP(=O)(O)OP(O)(O)=S)[C@@H](O)[C@H]1O
5.05

---

# Measured Target: Wild-type ABL kinase domain (Homo sapiens, UniProt P00519)
# Protocol Conditions: Table 4; displacement of probe 3.2 at 3.3 μM
Readout Kind: Kd (µM)
Respond numerically; units are µM and should not be typed.

State recorded Kd with Wild-type ABL kinase domain (Homo sapiens, UniProt P00519), entry Nc1ncnc2c1ncn2[C@@H]1O[C@H](COP(=O)(O)OP(=O)(O)OP(O)(O)=S)[C@@H](O)[C@H]1O , no comment.
4.8

---

# Measured Target: T315I ABL mutant kinase domain (Homo sapiens, UniProt P00519, T315I)
# Protocol Conditions: Table 4; displacement of probe 3.2 at 0.2 μM
Readout Kind: Kd (nM)
Respond numerically; units are nM and should not be typed.

Output measured Kd for this item: Nc1ncnc2c1ncn2[C@@H]1O[C@H](COP(=O)(O)OP(=O)(O)OP(O)(O)=S)[C@@H](O)[C@H]1O [ATPγS]
2610

Every entry's value here was drawn from patent US8084455B2.
